target: purified DHFR of strain Sp1/1 of Streptococcus pneumoniae (Streptococcus pneumoniae serotype 4, UniProt Q54801); assay type: biochemical; conditions: Table 2; IC50 against purified DHFR of strain Sp1/1
parameter_measured: pIC50
Here pIC50 is given on a logarithmic scale as minus log10 of the concentration in mol/L.

Illustrative cases are given below, each with its answer.
smiles_string | parameter_measured | assay_value
CCOc1cc(Cc2cnc(N)nc2N)cc(OS(=O)(=O)N(C)C(C)C)c1-c1ccc(O)cc1 | pIC50 | 7.85
CCOc1cc(Cc2cnc(N)nc2N)cc(OS(=O)(=O)N(C)CC)c1-c1ccc(N)c(C)c1 | pIC50 | 7.85
CCOc1cc(Cc2cnc(N)nc2N)cc(OCC)c1-c1cccnc1 | pIC50 | 7.00
CCOc1cc(Cc2cnc(N)nc2N)cc(OCC)c1-c1ccc2cc[nH]c2c1 | pIC50 | 7.66
CCOc1cc(Cc2cnc(N)nc2N)cc(OCC)c1-c1cccc(S(C)(=O)=O)c1 | pIC50 | 7.07
CCOc1cc(Cc2cnc(N)nc2N)cc(OCC)c1-c1ccc2c(c1)OCCO2 | pIC50 | 7.12
CCOc1cc(Cc2cnc(N)nc2N)cc(OCC)c1-c1cccc([N+](=O)[O-])c1 | pIC50 | 7.22

Please find the next compound below.
Incoming: I have this compound here, CCOc1cc(Cc2cnc(N)nc2N)cc(OCC2CC2)c1-c1ccc(OCCO)cc1 , and I need its recorded pIC50.
Outgoing: 7.32

====

Biological target: purified DHFR of strain Sp1/1 of Streptococcus pneumoniae (Streptococcus pneumoniae serotype 4, UniProt Q54801)
Sequence (Q54801 1-168 I100L): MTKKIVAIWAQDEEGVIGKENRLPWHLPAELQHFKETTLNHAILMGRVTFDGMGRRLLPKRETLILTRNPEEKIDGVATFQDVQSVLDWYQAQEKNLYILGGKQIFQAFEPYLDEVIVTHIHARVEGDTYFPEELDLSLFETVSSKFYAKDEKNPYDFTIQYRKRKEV
Type: biochemical
Conditions: Table 2; IC50 against purified DHFR of strain Sp1/1
parameter_measured: pIC50
Note on pIC50: it is the negative log10 of concentration, concentration in mol/L.

Guide cases for pIC50, answers given:
molecule | pIC50
CCOc1cc(Cc2cnc(N)nc2N)cc(OS(=O)(=O)C(C)CC)c1-c1ccc(O)cc1 (centres unmarked) [Example 15-g] | 7.60
CCOc1cc(Cc2cnc(N)nc2N)cc(OC2CCC(CC#N)C2)c1-c1ccc(O)cc1 (centres unmarked) [Example 08-w] | 7.68
CCOc1cc(Cc2cnc(N)nc2N)cc(OS(=O)(=O)N2CCCCC2)c1-c1ccc(O)cc1 [Example 20-b] | 8.74
CCOc1cc(Cc2cnc(N)nc2N)cc(OCC)c1-c1ccc(OCC(N)=O)cc1 [Example 46-] | 7.26
CCOc1cc(Cc2cnc(N)nc2N)cc(OS(=O)(=O)C(C)CC)c1-c1ccc(CN2CCOCC2)c(N)c1 (centres unmarked) [Example 35-c] | 8.34
CCOc1cc(Cc2cnc(N)nc2N)cc(OS(=O)(=O)CC(C)C)c1-c1ccc(OCCO)cc1 [Example 61-a] | 8.74
CCOc1cc(Cc2cnc(N)nc2N)cc(OCCc2scnc2C)c1-c1ccc(O)cc1 [Example 08-q] | 7.55
CCOc1cc(Cc2cnc(N)nc2N)cc(OCC)c1-c1cccc(NS(C)(=O)=O)c1 [Example 44-] | 7.74

Incoming: Suppose we examine the molecule CCOc1cc(Cc2cnc(N)nc2N)cc(OS(=O)(=O)N(C)C2CC2)c1-c1cc(N)cc(F)c1 [Example 29-a] ; what pIC50 value has been reported?
Outgoing: 8.20

Incoming: State the recorded pIC50 for this entry: CCOc1cc(Cc2cnc(N)nc2N)cc(OC2CCCC2)c1-c1ccc(O)cc1 [Example 08-j]
Outgoing: 7.59

Incoming: Item under review: CCOc1cc(Cc2cnc(N)nc2N)cc(OS(C)(=O)=O)c1-c1cccc(N)c1 [Example 14-a] . Reported pIC50?
Outgoing: 7.64

Incoming: So what does the record say about pIC50 for CCOc1cc(Cc2cnc(N)nc2N)cc(OS(=O)(=O)C(C)C)c1-c1cc(N)cc(F)c1 [Example 33-c] ?
Outgoing: 7.85

Incoming: pIC50 for CCOc1cc(Cc2cnc(N)nc2N)cc(OCC)c1-c1ccc(CN2CCOCC2)s1 [Example 02-ac] ?
Outgoing: 7.19

====

system: Staphylococcus aureus 101; test: MIC against Staphylococcus aureus 101; type: cell-based; conditions: Table 2; Staphylococcus aureus 101, MRSA- and trimethoprim-resistant; clinical isolate; read-out: MIC Sa101
Measured MIC by item
The reply should be a number in µg/mL, with the unit left off.

compound | parameter_measured | assay_value
CCOc1cc(Cc2cnc(N)nc2N)cc(OCC)c1-c1ccc(S(N)(=O)=O)cc1 | MIC | 8
CCOc1cc(Cc2cnc(N)nc2N)cc(OCC2CC2)c1-c1ccc2c(c1)OCO2 | MIC | 8
CCOc1cc(Cc2cnc(N)nc2N)cc(OS(=O)(=O)CC(C)C)c1-c1ccc(N)cc1 | MIC | 2
CCOc1cc(Cc2cnc(N)nc2N)cc(OCC)c1-c1ccc(CN2CCOCC2)nc1 | MIC | 8
CCOc1cc(Cc2cnc(N)nc2N)cc(OS(=O)(=O)N2CCOCC2)c1-c1ccc(N)cc1 | MIC | 2
CCOc1cc(Cc2cnc(N)nc2N)cc(OCC(C)(C)CO)c1-c1ccc(O)cc1 | MIC | 8

Incoming: Give Staphylococcus aureus 101 MIC for CCOc1cc(Cc2cnc(N)nc2N)cc(OCC(C)(C)CCC#N)c1-c1ccc(O)cc1
Outgoing: 4

Incoming: Lab note: need MIC with Staphylococcus aureus 101 for entry CCOc1cc(Cc2cnc(N)nc2N)cc(OCC)c1-c1cccc(NS(C)(=O)=O)c1 , please look it up.
Outgoing: 8

Incoming: So what MIC did CCOc1cc(Cc2cnc(N)nc2N)cc(OCC)c1-c1ccc2c(c1)OCO2 get with Staphylococcus aureus 101?
Outgoing: 4

Incoming: Give recorded MIC with Staphylococcus aureus 101 for the following compound: CCOc1cc(Cc2cnc(N)nc2N)cc(OCC)c1-c1ccc(CN(C)CCF)cc1
Outgoing: 8

Incoming: Checklist item: MIC tested on Staphylococcus aureus 101, entry CCOc1cc(Cc2cnc(N)nc2N)cc(OCC)c1-c1ccc(F)c(N)c1 , value?
Outgoing: 8

Incoming: Tell me reported MIC for CCOc1cc(Cc2cnc(N)nc2N)cc(OCC)c1-c1ccc(OS(C)(=O)=O)cc1 , tested with Staphylococcus aureus 101.
Outgoing: 8

Incoming: Tell me reported MIC for CCOc1cc(Cc2cnc(N)nc2N)cc(OCC2(CC#N)CC2)c1-c1ccc(O)cc1 , tested with Staphylococcus aureus 101.
Outgoing: 8

Incoming: Can you look up MIC on Staphylococcus aureus 101 for CCOc1cc(Cc2cnc(N)nc2N)cc(OCC2CC2)c1-c1ccc(OCCO)cc1 ?
Outgoing: 8

Incoming: Value wanted: MIC (Staphylococcus aureus 101) of entry CCOc1cc(Cc2cnc(N)nc2N)cc(OCC)c1-c1cc(C)nc(C)c1
Outgoing: 8

Incoming: What measured MIC is associated with CCOc1cc(Cc2cnc(N)nc2N)cc(OS(=O)(=O)CC(C)(C)C)c1-c1cccc(N)c1 on Staphylococcus aureus 101?
Outgoing: 8

Incoming: // lookup MIC | system=Staphylococcus aureus 101 | key= CCOc1cc(Cc2cnc(N)nc2N)cc(OCC)c1-c1cccnc1
Outgoing: 8

====

# MIC per entry
test system: Staphylococcus aureus 101; assay: MIC against Staphylococcus aureus 101; assay type: cell-based; settings: Table 2; Staphylococcus aureus 101, MRSA- and trimethoprim-resistant; clinical isolate; read-out: MIC Sa101
Expressed in mg/L, but write only the number.

Study these solved cases before continuing.
compound | endpoint_unit | assay_value
CCOc1cc(Cc2cnc(N)nc2N)cc(OCC)c1-c1ccc([S+](C)[O-])cc1 (racemic) [Example 02-j] | mg/L | 8
CCOc1cc(Cc2cnc(N)nc2N)cc(OCC(C)(C)COC)c1-c1ccc(O)cc1 [Example 08-a] | mg/L | 8
CCOc1cc(Cc2cnc(N)nc2N)cc(OS(=O)(=O)C2CCOCC2)c1-c1ccc(N)c(F)c1 [Example 41-b] | mg/L | 4
CCCOc1cc(Cc2cnc(N)nc2N)cc(OCC)c1-c1cccc(O)c1 [Example 53-] | mg/L | 8
CCOc1cc(Cc2cnc(N)nc2N)cc(OS(=O)(=O)N2CCCC2)c1-c1cccc(N)c1 [Example 19-c] | mg/L | 2

Incoming: Returns the measured MIC for the input compound. Input: CCOc1cc(Cc2cnc(N)nc2N)cc(OS(=O)(=O)N(C)CC)c1-c1ccc(CN2CCOCC2)c(N)c1 [Example 30-c]
Outgoing: 2

Incoming: Bench note: what MIC did CCOc1cc(Cc2cnc(N)nc2N)cc(OS(=O)(=O)N(C)C)c1-c1ccc(N)c(C#N)c1 [Example 43-c] show?
Outgoing: 2

Incoming: # MIC lookup, item CCOc1cc(Cc2cnc(N)nc2N)cc(OCC2(C)CC2)c1-c1ccc(O)cc1 [Example 08-o]
Outgoing: 4
